# system-name: T1, human ferroportin (SLC40A1) fused in frame with GFP, stably expressed in HEK293 cells (human, UniProt Q9NP59 1-571)
# T1 sequence (looked up): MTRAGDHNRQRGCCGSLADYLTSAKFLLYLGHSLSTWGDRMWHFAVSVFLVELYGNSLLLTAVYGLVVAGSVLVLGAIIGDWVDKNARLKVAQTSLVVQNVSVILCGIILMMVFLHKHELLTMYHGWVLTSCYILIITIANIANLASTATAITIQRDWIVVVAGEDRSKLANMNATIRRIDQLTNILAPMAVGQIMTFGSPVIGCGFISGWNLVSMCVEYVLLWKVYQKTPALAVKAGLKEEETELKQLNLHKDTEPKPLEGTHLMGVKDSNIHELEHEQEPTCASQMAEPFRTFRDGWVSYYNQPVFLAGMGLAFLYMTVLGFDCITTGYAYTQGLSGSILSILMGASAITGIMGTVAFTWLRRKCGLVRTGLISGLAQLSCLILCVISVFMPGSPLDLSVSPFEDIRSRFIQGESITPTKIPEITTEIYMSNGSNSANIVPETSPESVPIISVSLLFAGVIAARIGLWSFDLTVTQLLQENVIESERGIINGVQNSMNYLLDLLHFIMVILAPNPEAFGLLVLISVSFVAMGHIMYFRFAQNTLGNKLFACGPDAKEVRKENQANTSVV
# protocol-notes: cell-based or functional assay
Positions of bridges follow the written chain, without caps; N, C: chain ends. Non-standard residues stand in square brackets, D forms with d. Groups on a side chain read outwards from the residue. *: point of attachment. Ala(1H-tetrazol-5-yl) = N[C@@H](Cc1nnn[nH]1)C(=O)O; Dip = N[C@H](C(=O)O)C(c1ccccc1)c1ccccc1; His(τ-Me) = Cn1cnc(C[C@H](N)C(=O)O)c1; Palmitoyl = CCCCCCCCCCCCCCCC(=O)*; NMeF = CN[C@@H](Cc1ccccc1)C(=O)O; β3hF = N[C@H](CC(=O)O)Cc1ccccc1; (n-hexyl)Gly = n-hexyl glycine; Isovaleryl = CC(C)CC(=O)*; Ahx = NCCCCCC(=O)O
Tick met if FPN EC50 is 90 nM or greater. Tick not met if FPN EC50 is less than 90 nM.

- binder: "Isovaleryl-[Ala(1H-tetrazol-5-yl)]T[His(τ-Me)][Dip]PAI[β3hF][dK]-NH2 (SMILES CC[C@H](C)[C@H](NC(=O)[C@H](C)NC(=O)[C@@H]1CCCN1C(=O)[C@@H](NC(=O)[C@H](Cc1cn(C)cn1)NC(=O)[C@@H](NC(=O)[C@H](Cc1nnn[nH]1)NC(=O)CC(C)C)[C@@H](C)O)C(c1ccccc1)c1ccccc1)C(=O)N[C@H](CC(=O)N[C@H](CCCCN)C(N)=O)Cc1ccccc1) [Isovaleric Acid-[Tet1]-T-[(1-Me)His]-[Dpa]-P-A-I-[bhPhe]-[(D)Lys]-NH2]"
  class: "met"
- binder: "Isovaleryl-ETH[Dip]PLI[dK][β3hF]K([Ahx-Palmitoyl])[dK]L-NH2 (SMILES CCCCCCCCCCCCCCCC(=O)NCCCCCC(=O)NCCCC[C@H](NC(=O)C[C@H](Cc1ccccc1)NC(=O)[C@@H](CCCCN)NC(=O)[C@@H](NC(=O)[C@H](CC(C)C)NC(=O)[C@@H]1CCCN1C(=O)[C@@H](NC(=O)[C@H](Cc1c[nH]cn1)NC(=O)[C@@H](NC(=O)[C@H](CCC(=O)O)NC(=O)CC(C)C)[C@@H](C)O)C(c1ccccc1)c1ccccc1)[C@@H](C)CC)C(=O)N[C@H](CCCCN)C(=O)N[C@@H](CC(C)C)C(N)=O) [Isovaleric Acid-E-T-H-[Dpa]-P-L-I-[(D)Lys]-[bhPhe]-[Lys(Ahx_Palm)]-[(D)Lys]-L-NH2]"
  class: "not met"
- binder: "Isovaleryl-ETH[Dip]P[(n-hexyl)Gly]IK([Ahx-Palmitoyl])[β3hF]-NH2 [Isovaleric Acid-E-T-H-[Dpa]-P-[(n-hexyl)Gly]-I-[Lys(Ahx_Palm)]-[bhPhe]-NH2]"
  class: "met"
- binder: "Isovaleryl-ETH[Dip]PAIK([Ahx-Palmitoyl])[β3hF]-NH2 (SMILES CCCCCCCCCCCCCCCC(=O)NCCCCCC(=O)NCCCC[C@H](NC(=O)[C@@H](NC(=O)[C@H](C)NC(=O)[C@@H]1CCCN1C(=O)[C@@H](NC(=O)[C@H](Cc1c[nH]cn1)NC(=O)[C@@H](NC(=O)[C@H](CCC(=O)O)NC(=O)CC(C)C)[C@@H](C)O)C(c1ccccc1)c1ccccc1)[C@@H](C)CC)C(=O)N[C@H](CC(N)=O)Cc1ccccc1) [Isovaleric Acid-E-T-H-[Dpa]-P-A-I-[Lys(Ahx_Palm)]-[bhPhe]-NH2]"
  class: "not met"
- binder: "Isovaleryl-[N‑(CH2CH2CH2CO2H)Gly]TH[Dip]PAIK([Ahx-Palmitoyl])[β3hF]-NH2 [Isovaleric Acid-[N-(CH2CH2CH2CO2H)Gly]-T-H-[Dpa]-P-A-I-[Lys(Ahx_Palm)]-[bhPhe]-NH2]"
  class: "met"
- binder: "DiIsoAmylAmine_CH2_Acid-TH[Dip]PAIK([Ahx-Palmitoyl])[β3hF][dK]-NH2 [[DiIsoAmylAmine_CH2_Acid]-T-H-[Dpa]-P-A-I-[Lys(Ahx_Palm)]-[bhPhe]-[(D)Lys]-NH2]"
  class: "not met"
- binder: "Isovaleryl-ATHKPEIK([Ahx-Palmitoyl])[β3hF]R-NH2 (lactam 4-6; SMILES CCCCCCCCCCCCCCCC(=O)NCCCCCC(=O)NCCCC[C@H](NC(=O)[C@@H](NC(=O)[C@@H]1CCC(=O)NCCCC[C@H](NC(=O)[C@H](Cc2c[nH]cn2)NC(=O)[C@@H](NC(=O)[C@H](C)NC(=O)CC(C)C)[C@@H](C)O)C(=O)N2CCC[C@H]2C(=O)N1)[C@@H](C)CC)C(=O)N[C@H](CC(=O)N[C@@H](CCCNC(=N)N)C(N)=O)Cc1ccccc1) [Isovaleric Acid-A-T-H-K-P-E-I-[Lys(Ahx_Palm)]-[bhPhe]-R-NH2; (K and E cyclized)]"
  class: "met"
- binder: "Isovaleryl-LTH[Dip]PLIK([Ahx-Palmitoyl])[NMeF]-NH2 (SMILES CCCCCCCCCCCCCCCC(=O)NCCCCCC(=O)NCCCC[C@H](NC(=O)[C@@H](NC(=O)[C@H](CC(C)C)NC(=O)[C@@H]1CCCN1C(=O)[C@@H](NC(=O)[C@H](Cc1c[nH]cn1)NC(=O)[C@@H](NC(=O)[C@H](CC(C)C)NC(=O)CC(C)C)[C@@H](C)O)C(c1ccccc1)c1ccccc1)[C@@H](C)CC)C(=O)N(C)[C@@H](Cc1ccccc1)C(N)=O) [Isovaleric Acid-L-T-H-[Dpa]-P-L-I-[Lys(Ahx_Palm)]-[(Me)Phe]-NH2]"
  class: "met"
- binder: "Isovaleryl-ETH[Dip]PAK(Ac)-NH2 (SMILES CC(=O)NCCCC[C@H](NC(=O)[C@H](C)NC(=O)[C@@H]1CCCN1C(=O)[C@@H](NC(=O)[C@H](Cc1c[nH]cn1)NC(=O)[C@@H](NC(=O)[C@H](CCC(=O)O)NC(=O)CC(C)C)[C@@H](C)O)C(c1ccccc1)c1ccccc1)C(N)=O) [Isovaleric Acid-E-T-H-[Dpa]-P-A-[Lys(Ac)]-NH2]"
  class: "met"
